test_protocol: In vivo oral bioavailability assay (pharmacokinetics)
Parameters: species or system S.D. rats
condition_details: male, S.D., plasma; rat; oral administration 60 mg/kg
Description: 3. In Vivo Oral Bioavailability Assay The compound PCMI-31 was synthesized and detected according to the methods provided in the present invention. The internal standard, paclitaxel, was purchased from China's National Institute for the Control of Pharmaceutical and Biological Products (NICPBP). […]
property_label: Cmax (ng/mL)

1. CO[C@H]1C(=O)[C@]2(C)[C@@H](OC(=O)N(C)C)C[C@H]3OC[C@@]3(OC(C)=O)[C@H]2[C@H](OC(=O)c2ccccc2)[C@]2(O)C[C@H](OC(=O)[C@H](O)[C@@H](NC(=O)OC(C)(C)C)c3ccccc3)C(C)=C1C2(C)C [PCMI-31]: 922

* * *

test_protocol: In vivo oral bioavailability assay (pharmacokinetics)
Set-up: species or system S.D. rats
condition_details: male, S.D., plasma; rat; intravenous administration 5 mg/kg
property_label: AUC(0-inf) (ng·h/mL)

1) CO[C@H]1C(=O)[C@]2(C)[C@@H](OC(=O)N(C)C)C[C@H]3OC[C@@]3(OC(C)=O)[C@H]2[C@H](OC(=O)c2ccccc2)[C@]2(O)C[C@H](OC(=O)[C@H](O)[C@@H](NC(=O)OC(C)(C)C)c3ccccc3)C(C)=C1C2(C)C [PCMI-31]: 3320

* * *

test_protocol: Caco-2 cell monolayer membrane transport assay
condition_details: human, Caco-2, Papp A-B, Sample-01, Caco-2; A-B; Sample-01
The molecules listed here are annotated with their Papp A→B.
property_label: Papp A→B (×10⁻⁶ cm/s)

1. CO[C@H]1C(=O)[C@]2(C)[C@@H](OC(=O)N(C)C)C[C@H]3OC[C@@]3(OC(C)=O)[C@H]2[C@H](OC(=O)c2ccccc2)[C@]2(O)C[C@H](OC(=O)[C@H](O)[C@@H](NC(=O)N(C)C)c3ccccc3)C(C)=C1C2(C)C [PCMI-35]: 3.21
2. CO[C@H]1C(=O)[C@]2(C)C=C[C@@H](O)[C@](CO)(OC(C)=O)[C@H]2[C@H](OC(=O)c2ccccc2)[C@]2(O)C[C@H](OC(=O)[C@H](O)[C@@H](NC(=O)c3ccccc3)c3ccccc3)C(C)=C1C2(C)C [PCMI-43]: 3.21
3. COC(=O)O[C@H]1C[C@H]2OC[C@@]2(OC(C)=O)[C@H]2[C@H](OC(=O)c3ccccc3)[C@]3(O)C[C@H](OC(=O)[C@H](O)[C@H](CC(C)C)NC(=O)OC(C)(C)C)C(C)=C([C@@H](OC)C(=O)[C@]12C)C3(C)C [PCMI-39]: 6.13
4. COC(=O)O[C@H]1C[C@H]2OC[C@@]2(OC(C)=O)[C@H]2[C@H](OC(=O)c3ccccc3)[C@]3(O)C[C@H](OC(=O)[C@H](O)[C@@H](NC(=O)OC(C)(C)C)c4ccccn4)C(C)=C([C@@H](OC)C(=O)[C@]12C)C3(C)C [PCMI-38]: 4.71

* * *

The molecules listed here are annotated with their inhibition at 1 µM.
test_protocol: MTT assay, proliferation inhibition
Format: cell-based
condition_details: Homo sapiens, LN-18 gastric cancer, read-out: Proliferation inhibition rate
property_label: inhibition at 1 µM (%)

1. COC(=O)O[C@H]1C(=O)[C@]2(C)[C@@H](OC)C[C@H]3OC[C@@]3(OC(C)=O)[C@H]2[C@H](OC(=O)c2ccccc2)[C@]2(O)C[C@H](OC(=O)[C@H](O)[C@H](CC(C)C)NC(=O)OC(C)(C)C)C(C)=C1C2(C)C [PCMI-28]: 97.5
2. CO[C@H]1C[C@H]2OC[C@@]2(OC(C)=O)[C@H]2[C@H](OC(=O)c3ccccc3)[C@]3(O)C[C@H](OC(=O)[C@H](O)[C@@H](NC(=O)OC(C)(C)C)c4ccccn4)C(C)=C([C@@H](OC(=O)N(C)C)C(=O)[C@]12C)C3(C)C [PCMI-24]: 94
3. CCSC(=O)O[C@H]1C(=O)[C@]2(C)[C@@H](OC)C[C@H]3OC[C@@]3(OC(C)=O)[C@H]2[C@H](OC(=O)c2ccccc2)[C@]2(O)C[C@H](OC(=O)[C@H](O)[C@@H](NC(=O)OC(C)(C)C)c3ccccc3)C(C)=C1C2(C)C [PCMI-30]: 95
4. CO[C@H]1C(=O)[C@]2(C)[C@@H](OC(=O)N(C)C)C[C@H]3OC[C@@]3(OC(C)=O)[C@H]2[C@H](OC(=O)c2ccccc2)[C@]2(O)C[C@H](OC(=O)[C@H](O)[C@@H](NC(=O)OC(C)(C)C)c3ccccn3)C(C)=C1C2(C)C [PCMI-33]: 93.2

Value source: patent US10253007B2
